Hi there, I'd appreciate the recorded Activity of mutant relative to wild-type Gaussia luciferase without the signal peptide for every entry that follows.
assay: Luminescence activity assay of purified Gaussia luciferase mutants on coelenterazine derivative ZS2; format: biochemical; set-up: key: ratio of mutant luminescence intensity to wild-type Gaussia luciferase; settings: Substrate ZS2 (Table 16)
Numbers only.

1) Q152K Q163S T167S S170N G174N K178S A182Y G183A: Gaussia luciferase mutant (protein, SIGNAL (1)..(17), Gaussia luciferase mutant) MGVKVLFALICIAVAEAKPTENNEDFNIVAVASNFATTDLDADRGKLPGKKLPLEVLKEMEANARKAGCTRGCLICLSHIKCTPKMKKFIPGRCHTYEGDKESAQGGIGEAIVDIPEIPGFKDLEPMEQFIAQVDLCVDCTTGCLKGLANVKCSDLLKKWLPSRCASFANKIQNQVDSIKGYAGD ... 0.819

Asked: # return recorded Activity of mutant relative to wild-type Gaussia luciferase without the signal peptide for input V29L A30G A32V S33G A36N T37A L40S: Gaussia luciferase mutant (protein, SIGNAL (1)..(17), Gaussia luciferase mutant) MGVKVLFALICIAVAEAKPTENNEDFNILGVVGNFNATDSDADRGKLPGKKLPLEVLKEMEANARKAGCTRGCLICLSHIKCTPKMKKFIPGRCHTYEGDKESAQGGIGEAIVDIPEIPGFKDLEPMEQFIAQVDLCVDCTTGCLKGLANVQCSDLLKKWLPQRCATFASKIQGQVDKIKGAGGD
Given back: 1.976

// data source = patent US20250066745A1
